- assay_summary: Pharmacokinetic study of rivaroxaban in rats, alone and with ribociclib (UPLC-MS/MS plasma levels)
- Type: in vivo, Sprague-Dawley rats
- assay_context: Sprague-Dawley, rat, plasma, po, 1 mg/kg, RIVA 1 mg/kg + RIBO 60 mg/kg for 8 days
measured_property: Tmax (h)

>>> measured("O=C(NC[C@H]1CN(c2ccc(N3CCOCC3=O)cc2)C(=O)O1)c1ccc(Cl)s1")
1.92

====

- assay_summary: Pharmacokinetic study of apixaban in rats, alone and after ribociclib (UPLC-MS/MS plasma levels)
- Format: in vivo, Sprague-Dawley rats
- assay_context: Sprague-Dawley, rat, plasma, po, 0.5 mg/kg, oral API 0.5 mg/kg alone, read-out: Vz/F
measured_property: Vd/F (L/kg)

>>> measured("COc1ccc(-n2nc(C(N)=O)c3c2C(=O)N(c2ccc(N4CCCCC4=O)cc2)CC3)cc1")
4.16

====

- assay_summary: Pharmacokinetic study of ribociclib in rats, alone and after rivaroxaban or apixaban (UPLC-MS/MS plasma levels)
- Assay type: in vivo, Sprague-Dawley rats
- assay_context: Sprague-Dawley, rat, plasma, po, 60 mg/kg, rats, RIBO 60 mg/kg after RIVA 2 mg/kg for 5 days
measured_property: Tmax (h)

>>> measured("CN(C)C(=O)c1cc2cnc(Nc3ccc(N4CCNCC4)cn3)nc2n1C1CCCC1")
4.33

====

- assay_summary: Pharmacokinetic study of ribociclib in rats, alone and after rivaroxaban or apixaban (UPLC-MS/MS plasma levels)
- Format: in vivo, Sprague-Dawley rats
- assay_context: Sprague-Dawley, rat, plasma, po, 60 mg/kg, rats, RIBO 60 mg/kg after API 0.5 mg/kg for 5 days; read-out: Vz/F
- Protocol: Experimental animals were randomly divided into nine groups (n = 6, Table 1). Ribociclib was suspended in methylcellulose (MC), rivaroxaban was prepared in hydroxypropyl methylcellulose (HPMC), and apixaban was suspended in 5% DMSO in water. To achieve steady-state blood concentrations, a drug typically requires five to seven half-lives. […] Apixaban and rivaroxaban concentrations in plasma samples were determined using our previously established UPLC-MS/MS method ([Wang et al., 2023]). […]
measured_property: Vd/F (L/kg)

>>> measured("CN(C)C(=O)c1cc2cnc(Nc3ccc(N4CCNCC4)cn3)nc2n1C1CCCC1")
28.3

====

- assay_summary: Pharmacokinetic study of rivaroxaban in rats, alone and with ribociclib (UPLC-MS/MS plasma levels)
- Type: in vivo, Sprague-Dawley rats
- assay_context: Sprague-Dawley, rat, plasma, po, 1 mg/kg, RIVA 1 mg/kg + RIBO 60 mg/kg for 8 days, read-out: Vz/F
measured_property: Vd/F (L/kg)

>>> measured("O=C(NC[C@H]1CN(c2ccc(N3CCOCC3=O)cc2)C(=O)O1)c1ccc(Cl)s1")
2.16

====

- assay_summary: Pharmacokinetic study of rivaroxaban in rats, alone and with ribociclib (UPLC-MS/MS plasma levels)
- Assay type: in vivo, Sprague-Dawley rats
- assay_context: Sprague-Dawley, rat, plasma, po, 2 mg/kg, RIVA 2 mg/kg + RIBO 60 mg/kg for 8 days
measured_property: AUC(0-t) (ng·h/mL)

>>> measured("O=C(NC[C@H]1CN(c2ccc(N3CCOCC3=O)cc2)C(=O)O1)c1ccc(Cl)s1 [RIVA, rivaroxaban]")
4100

====

- assay_summary: Pharmacokinetic study of apixaban in rats, alone and after ribociclib (UPLC-MS/MS plasma levels)
- Assay type: in vivo, Sprague-Dawley rats
- assay_context: Sprague-Dawley, rat, plasma, po, 0.5 mg/kg, oral API 0.5 mg/kg alone
measured_property: AUC(0-inf) (ng·h/mL)

>>> measured("COc1ccc(-n2nc(C(N)=O)c3c2C(=O)N(c2ccc(N4CCCCC4=O)cc2)CC3)cc1 [API, apixaban]")
420

====

- assay_summary: Pharmacokinetic study of rivaroxaban in rats, alone and with ribociclib (UPLC-MS/MS plasma levels)
- Format: in vivo, Sprague-Dawley rats
- assay_context: Sprague-Dawley, rat, plasma, po, 2 mg/kg, oral RIVA 2 mg/kg alone
measured_property: AUC(0-t) (ng·h/mL)

>>> measured("O=C(NC[C@H]1CN(c2ccc(N3CCOCC3=O)cc2)C(=O)O1)c1ccc(Cl)s1")
1210
